Test system: CCRIS mutagenicity, Ames/micronucleus/aberration tests
Run description: CCRIS mutagenicity studies
Details: Test System: AMES SALMONELLA TYPHIMURIUM; Strain/Indicator: TA1535; Metabolic Activation: HAMSTER, LIVER, S-9, AROCLOR 1254 (10%); Method: PREINCUBATION
Activity calls are given as the source filed them. The rule behind the calls is not given here.
Bench note: report the call from active, inactive

Compound: CC(=O)OCc1ccc2c(c1)OCO2
Qualitative label: inactive
--
Compound: OCCCCl
Qualitative label: active
--
Compound: Nc1c2ccccc2nc2ccccc12
Qualitative label: inactive
--
Compound: CN1CCC(CN2c3ccccc3Sc3ccccc32)C1 (configuration not stated)
Qualitative label: inactive
--
Compound: COP(=O)(OC)C(O)C(Cl)(Cl)Cl (configuration not stated)
Qualitative label: inactive
--
Compound: Nc1ccc2ccccc2c1N=Nc1ccc([N+](=O)[O-])cc1
Qualitative label: inactive

Qu. How was `CCCCCCCCCCCCCOC(=O)c1ccccc1C(=O)OCCCCCCCCCCCCC` classified in this test?
Ans. inactive

* * *

Test system: CCRIS mutagenicity, Ames/micronucleus/aberration tests
Run description: CCRIS mutagenicity studies
Details: Test System: UDS RAT HEPATOCYTES; Strain/Indicator: THY INCORP; Metabolic Activation: NONE; Method: AUTORADIOGRAPHY
Text: The CCRIS database contains chemical records with carcinogenicity, mutagenicity, tumor promotion, and tumor inhibition test results. It was developed by the National Cancer Institute (NCI). Data are derived from studies cited in primary journals, current awareness tools, NCI reports, and other sources. Test results have been reviewed by experts in carcinogenesis and mutagenesis. CCRIS provides historical information from the years 1985 - 2011. It is no longer updated. […]
Activity calls are given as the source filed them. How the calls were made is not given here.
Bench note: report the call from Yes = active, No = inactive

Study these solved cases before continuing.
Compound: CCCCOCCOCCOCc1cc2c(cc1CCC)OCO2
Qualitative label: No
//
Compound: CC(C)[N+](=O)[O-]
Qualitative label: Yes
//
Compound: CCCCCCCCC=O
Qualitative label: No
//
Compound: NC(CO)C(=O)NNCc1ccc(O)c(O)c1O (configuration not stated)
Qualitative label: No

Qu. How was CCC1C(=O)O[C@@H]2CCN(C)C/C=C(/COC(=O)[C@](C)(O)[C@H](C)[C@@H]1O)C2=O (some centres not stated) classified in this test?
Ans. Yes

Qu. How was `Nc1ccccc1C(=O)OC/C=C/c1ccccc1` classified in this test?
Ans. No

Qu. How was `C[C@H]1C(=O)O[C@@H]2CCN3CC=C(COC(=O)[C@](C)(O)[C@]1(C)O)[C@H]23` classified in this test?
Ans. Yes

* * *

Tested on: CCRIS mutagenicity, Ames/micronucleus/aberration tests
Run description: CCRIS mutagenicity studies
Details: Test System: E. COLI; Strain/Indicator: WP2; Metabolic Activation: NONE; Method: PREINCUBATION
Active and inactive are the calls of the source. No rule for the calls is given here.
Bench note: report the call from class 1 for active, class 0 for inactive

Study these solved cases before continuing.
Entry smiles: CC1(C)SSC[C@@H](C(=O)O)NC1=O
Qualitative label: class 0
//
Entry smiles: COP(=O)(OC)OC=C(Cl)Cl
Qualitative label: class 1
//
Entry smiles: CN(C)c1ccc2cc3ccc(N(C)C)cc3nc2c1
Qualitative label: class 0

Shift focus to the following entry.
Qu. How was `CSC(C)(C)C(=O)N[C@@H](CS)C(=O)O` classified in this test?
Ans. class 0

* * *

Test system: CCRIS mutagenicity, Ames/micronucleus/aberration tests
Run description: CCRIS mutagenicity studies
Details: Test System: AMES SALMONELLA TYPHIMURIUM; Strain/Indicator: TA100; Metabolic Activation: S-9; Method: STANDARD PLATE
Activity calls are given as the source filed them. The rule behind the calls is not given here.
Bench note: report the call from yes (1) for active, no (0) for inactive

Study these solved cases before continuing.
Entry smiles: Cc1ccc2c(c1)c(=NC(=O)c1cccc([N+](=O)[O-])c1)sn2C(=O)c1cccc([N+](=O)[O-])c1
Qualitative label: yes (1)
//
Entry smiles: Nc1ccc(/C=C\c2ccc([N+](=O)[O-])cc2)cc1
Qualitative label: yes (1)
//
Entry smiles: CCOP(=S)(OCC)Oc1ccc([N+](=O)[O-])cc1
Qualitative label: yes (1)
//
Entry smiles: COc1ccc(/C=C/c2ccc([N+](=O)[O-])cc2)cc1
Qualitative label: yes (1)

Qu. How was `CC(=O)Nc1snc2ccc(Cl)cc12` classified in this test?
Ans. yes (1)

Qu. How was `CNC(=O)Oc1ccc2c(c1)[C@]1(C)CCN(C)[C@@H]1N2C` classified in this test?
Ans. no (0)

Qu. How was `O=C(CCl)Nc1snc2ccccc12` classified in this test?
Ans. yes (1)

Qu. How was `CC(=O)O[C@H]1C(=O)[C@@]2(C)[C@H]([C@H](OC(=O)c3ccccc3)[C@]3(O)C[C@H](OC(=O)[C@H](O)[C@@H](NC(=O)c4ccccc4)c4ccccc4)C(C)=C1C3(C)C)[C@]1(OC(C)=O)CO[C@@H]1C[C@@H]2O` classified in this test?
Ans. no (0)

Qu. How was `CN(N=O)C(=O)c1c(N(C)C(=O)OC(C)(C)C)ncn1C` classified in this test?
Ans. yes (1)

* * *

Tested on: CCRIS mutagenicity, Ames/micronucleus/aberration tests
Run description: CCRIS mutagenicity studies
Details: Test System: AMES SALMONELLA TYPHIMURIUM; Strain/Indicator: TA1537; Metabolic Activation: NONE; Method: STANDARD PLATE
Calls of active or inactive are those of the source. The rule behind the calls is not given here.
Bench note: report the call from active, inactive

Molecule: O=C(O)c1cc2c(c3c1c([N+](=O)[O-])cc1ccccc13)OCO2
Measured on: CCRIS mutagenicity, Ames/micronucleus/aberration tests
Qualitative label: active
//
Molecule: O=[N+]([O-])C1=Cc2cccc3c2c1cc1ccc2ccccc2c13
Measured on: CCRIS mutagenicity, Ames/micronucleus/aberration tests
Qualitative label: active
//
Molecule: O=C1c2cccc(O)c2C(=O)c2c(O)cccc21
Measured on: CCRIS mutagenicity, Ames/micronucleus/aberration tests
Qualitative label: active
//
Molecule: Nc1ccn([C@@H]2C=C(CO)[C@@H](O)[C@H]2O)c(=O)n1
Measured on: CCRIS mutagenicity, Ames/micronucleus/aberration tests
Qualitative label: inactive

Shift focus to the following entry.
Qu. How was `CCCCOc1ccc2nc3cc(Cl)ccc3c(NCCCNCCCl)c2n1` classified in this test?
Ans. active

* * *

Test system: CCRIS mutagenicity, Ames/micronucleus/aberration tests
Run description: CCRIS mutagenicity studies
Details: Test System: AMES SALMONELLA TYPHIMURIUM; Strain/Indicator: TA98(1,8-DNP6); Metabolic Activation: NONE; Method: STANDARD PLATE
Activity calls are given as the source filed them. No rule for the calls is given here.
Bench note: report the call from t (active), f (inactive)

Study these solved cases before continuing.
Entry smiles: O=[N+]([O-])c1ccc2ccc3cc4ccccc4c4ccc1c2c34
Measured on: CCRIS mutagenicity, Ames/micronucleus/aberration tests
Qualitative label: t
//
Entry smiles: Nc1ccc(/C=C\c2ccc([N+](=O)[O-])cc2)cc1
Measured on: CCRIS mutagenicity, Ames/micronucleus/aberration tests
Qualitative label: f
//
Entry smiles: O=[N+]([O-])c1ccc2c(c1)CCc1cc([N+](=O)[O-])ccc1-2
Measured on: CCRIS mutagenicity, Ames/micronucleus/aberration tests
Qualitative label: t
//
Entry smiles: Nc1ccc(/C=C/c2cccc(Cl)c2)cc1
Measured on: CCRIS mutagenicity, Ames/micronucleus/aberration tests
Qualitative label: f
//
Entry smiles: CC(=O)Nc1cc(O)c2ccc3cccc4ccc1c2c34
Measured on: CCRIS mutagenicity, Ames/micronucleus/aberration tests
Qualitative label: t
//
Entry smiles: O=c1oc2c([N+](=O)[O-])cccc2c2ccccc12
Measured on: CCRIS mutagenicity, Ames/micronucleus/aberration tests
Qualitative label: t

Shift focus to the following entry.
Qu. How was `O=[N+]([O-])c1cc2c3c(c1)CCc1cccc(c1-3)CC2` classified in this test?
Ans. t

* * *

Tested on: CCRIS mutagenicity, Ames/micronucleus/aberration tests
Run description: CCRIS mutagenicity studies
Details: Test System: AMES SALMONELLA TYPHIMURIUM; Strain/Indicator: TA100; Metabolic Activation: NONE; Method: PREINCUBATION
Calls of active or inactive are those of the source. The rule behind the calls is not given here.
Bench note: report the call from class 1 for active, class 0 for inactive

Molecule: CC(O)CN (centres undefined)
Qualitative label: class 0
//
Molecule: Nc1ccc([N+](=O)[O-])c(N)c1
Qualitative label: class 0
//
Molecule: [Cl][Pd][Cl]
Qualitative label: class 0
//
Molecule: CCCCCC[C@@H](O)C/C=C\CCCCCCCC(=O)O
Qualitative label: class 0
//
Molecule: Nc1nc(N)nc(N)n1
Qualitative label: class 0
//
Molecule: C=C(Br)C=O
Qualitative label: class 1
//
Molecule: CCC1NC(=O)c2cc(S(N)(=O)=O)c(Cl)cc2N1 (centres undefined)
Qualitative label: class 0
//
Molecule: COc1cc(S(=O)(=O)O)c(C)cc1N=Nc1c(O)ccc2cc(S(=O)(=O)O)ccc12
Qualitative label: class 0

Qu. How was `CCOc1cccc(N)c1` classified in this test?
Ans. class 0

Qu. How was CC(C)(c1ccc(OCC2CO2)cc1)c1ccc(OCC2CO2)cc1 (centres undefined) classified in this test?
Ans. class 1

Qu. How was `Oc1ccccc1O` classified in this test?
Ans. class 0

Qu. How was `Cc1nc2ccc(N(C)C)c(C)c2nc1C` classified in this test?
Ans. class 0

Qu. How was `CC(=O)Nc1ccc(Oc2ccc(N(O)C(C)=O)cc2)cc1` classified in this test?
Ans. class 1

Qu. How was `O=C1C=C(S(=O)(=O)O)c2ccccc2C1=O` classified in this test?
Ans. class 1
